System: IGROV1 ovarian
method: NCI tumour cell line growth inhibition, 48 h; in the data active = GI50 below about 0.43 µM; inactive = the rest
Outcomes: 1.0 (active), 0.0 (inactive)

> print(dat)
                                    compound  label.class
 1  Cc1cc(N2CCCC2)nc(N(CCNc2ccnc3cc(Cl)ccc23)Cc2ccco2)n1          0.0
 2  COc1cc(C(=O)NC2CCN(C)CC2)c(F)cc1Nc1ncc2c(n1)N(C1CCCC1)CC(F)(F)C(=O)N2C          1.0
 3  COc1ccc(C(=O)/C=C/c2c(Cl)c3c(c(OC)c2Cl)OCC(=O)N3)cc1          0.0
 4  CCN(CC)Cc1ccc(Nc2nccc(-c3cnn4ncccc34)n2)cc1          1.0
 5  COc1ccc(OC)c(-c2c(C#N)c(N)nc(N3CCOCC3)c2C#N)c1          0.0
 6  Cc1ccc(S(=O)(=O)Nc2cccc3[nH]c(C(F)(F)F)nc23)cc1          0.0
 7  COc1ccc(/C=C2\CCCC3=C2NC(N)=NC3c2ccc(OC)c(OC)c2)cc1OC (stereo not given)          0.0
 8  CN1CC[C@@H](c2c(O)cc(O)c3c(=O)cc(-c4ccccc4Cl)oc23)[C@@H]1CO          1.0
 9  C[CH2][Sn]([CH2]C)([O]C(=O)C(OC(C)=O)c1ccccc1)[O]C(=O)C(OC(C)=O)c1ccccc1 (stereo not given)          0.0
10  O=C(NN1C(=O)CSC12CCCC2)c1[nH]c2ccc(Br)cc2c1-c1ccccc1          0.0
11  O=C(/C=C/c1ccc([N+](=O)[O-])cc1)c1ccc2c3c(cccc13)CC2          0.0
12  O=C(Nc1cccc(NC(=O)Nc2cc(C(F)(F)F)ccc2Cl)c1)Nc1cc(C(F)(F)F)ccc1Cl          0.0
13  O=C1c2ccccc2-c2c1c1ccccc1c(=O)n2CCN1CCOCC1          0.0
14  C/C=C(\C)C(=O)O[C@H]1C=CC(=O)O[C@@H]1CC[C@H](O)[C@H](C)O          0.0
15                     NC(=S)N/N=C/c1ncccc1N          0.0
